Hey, just so you know, these numbers are from patent US7256206B2.

method: Assessment of heart effect (AnonyMOUSE ECG screening)
Type: in vivo, mice (C57bl/6 male)
assay.conditions: ECG before and after compound, 90 μg IP
readout: Heart effect in conscious mice

• C/C(=N\OCc1ccc(-c2cccc(C(F)(F)F)c2)cc1)c1ccc(CCC(N)(CO)COP(=O)(O)O)cc1 (stereo not shown) = clean
• C/C(=N\OCc1ccc(-c2ccsc2)cc1)c1ccc(CCC(N)(CO)COP(=O)(O)O)cc1 (stereo not shown) = clean
• C/C(=N\OCc1ccc(-c2cccs2)cc1)c1ccc(CCC(N)(CO)COP(=O)(O)O)cc1 (stereo not shown) = clean
• C/C(=N\OCc1ccc(-c2ccccc2)cc1)c1ccc(CCC(N)(CO)COP(=O)(O)O)cc1 (stereo not shown) = clean

###

Measured EC50, listed per entry.
system.name: EDG-8 (Homo sapiens)
Construct: c-myc (print says 'tagged or untagged'; not resolved for this receptor) (C); membranes
Sequence (Q9H228 whole entry): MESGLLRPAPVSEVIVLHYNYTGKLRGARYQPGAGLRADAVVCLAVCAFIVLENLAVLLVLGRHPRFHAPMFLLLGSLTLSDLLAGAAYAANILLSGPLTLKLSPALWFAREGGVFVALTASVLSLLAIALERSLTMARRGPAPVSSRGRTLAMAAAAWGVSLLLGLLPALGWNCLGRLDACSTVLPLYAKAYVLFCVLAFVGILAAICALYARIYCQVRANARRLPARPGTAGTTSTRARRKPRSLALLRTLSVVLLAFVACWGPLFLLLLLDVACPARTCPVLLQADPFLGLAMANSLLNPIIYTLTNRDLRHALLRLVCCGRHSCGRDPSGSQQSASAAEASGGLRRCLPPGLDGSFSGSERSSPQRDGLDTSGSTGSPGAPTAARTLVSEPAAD
method: EDG-8 GTP [γ-35S] binding assay (RH7777 membranes)

* C/C(=N\OCc1ccc(-c2ccsc2)cc1)c1ccc(CCC(N)(CO)COP(=O)(O)O)cc1 (stereo not shown) | > 10 µM
* C/C(=N\OCc1ccc(-c2cccc(C(F)(F)F)c2)cc1)c1ccc(CCC(N)(CO)COP(=O)(O)O)cc1 (stereo not shown) | 0.0058 µM
* C/C(=N\OCc1ccc(-c2ccccc2)cc1)c1ccc(CCC(N)(CO)COP(=O)(O)O)cc1 (stereo not shown) | > 10 µM

Consider the record given below.
Which EC50 value belongs to C/C(=N\OCc1ccc(-c2cccs2)cc1)c1ccc(CCC(N)(CO)COP(=O)(O)O)cc1 (stereo not shown) ?
> 10 µM

###

Measured pEC50, listed per entry.
system.name: EDG-3 (Homo sapiens, UniProt Q99500)
Construct: c-myc (print says 'tagged or untagged'; not resolved for this receptor) (C); expressed in transfected cells; membranes
Sequence (Q99500 whole entry): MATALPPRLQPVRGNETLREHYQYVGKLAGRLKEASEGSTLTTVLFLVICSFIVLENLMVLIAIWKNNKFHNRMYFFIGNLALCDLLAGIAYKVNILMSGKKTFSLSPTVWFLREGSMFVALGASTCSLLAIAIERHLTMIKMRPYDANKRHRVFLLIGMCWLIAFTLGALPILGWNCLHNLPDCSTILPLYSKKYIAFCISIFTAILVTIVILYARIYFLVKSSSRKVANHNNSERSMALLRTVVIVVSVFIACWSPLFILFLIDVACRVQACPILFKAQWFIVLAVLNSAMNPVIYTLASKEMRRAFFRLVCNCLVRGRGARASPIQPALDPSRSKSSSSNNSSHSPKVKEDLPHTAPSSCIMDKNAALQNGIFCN
method: EDG-3 GTP [γ-35S] binding assay
Format: biochemical
assay.conditions: CHO membranes
pEC50: −log10 of the molar value.

These recorded examples may help you get a feel for the data.
- C/C(=N\OCc1ccc(-c2ccsc2)cc1)c1ccc(CCC(N)(CO)COP(=O)(O)O)cc1 (stereo not shown): < 5.00
- C/C(=N\OCc1ccc(-c2cccs2)cc1)c1ccc(CCC(N)(CO)COP(=O)(O)O)cc1 (stereo not shown): < 5.00
- C/C(=N\OCc1ccc(-c2cccc(C(F)(F)F)c2)cc1)c1ccc(CCC(N)(CO)COP(=O)(O)O)cc1 (stereo not shown): 8.46

Which pEC50 value belongs to C/C(=N\OCc1ccc(-c2ccccc2)cc1)c1ccc(CCC(N)(CO)COP(=O)(O)O)cc1 (stereo not shown) ?
< 5.00

###

system.name: human EDG-1 (Homo sapiens)
Construct: c-myc (N); membrane protein suspensions
Sequence (P21453 whole entry): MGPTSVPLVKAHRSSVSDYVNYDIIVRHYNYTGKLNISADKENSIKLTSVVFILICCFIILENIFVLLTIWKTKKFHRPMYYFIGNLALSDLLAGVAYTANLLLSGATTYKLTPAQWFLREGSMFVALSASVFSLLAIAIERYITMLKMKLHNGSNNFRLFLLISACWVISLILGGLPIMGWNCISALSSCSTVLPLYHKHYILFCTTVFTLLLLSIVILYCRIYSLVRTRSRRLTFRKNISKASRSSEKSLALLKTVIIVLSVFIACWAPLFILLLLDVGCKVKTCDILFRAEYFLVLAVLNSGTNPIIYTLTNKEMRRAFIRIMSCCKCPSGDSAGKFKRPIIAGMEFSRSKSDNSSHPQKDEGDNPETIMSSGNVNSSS
method: EDG-1 (S1P1) GTP [γ-35S] binding assay (SPA)
assay.conditions: GTP [γ-35S] binding, CHO membranes
readout: pEC50
When answering, recall that pEC50 equals minus log10 of the concentration in mol/L, and write that number alone.

These recorded examples may help you get a feel for the data.
- C/C(=N\OCc1ccc(-c2cccs2)cc1)c1ccc(CCC(N)(CO)COP(=O)(O)O)cc1 (stereo not shown) [Compound 10]: 8.94
- C/C(=N\OCc1ccc(-c2ccccc2)cc1)c1ccc(CCC(N)(CO)COP(=O)(O)O)cc1 (stereo not shown): 9.07
- C/C(=N\OCc1ccc(-c2ccsc2)cc1)c1ccc(CCC(N)(CO)COP(=O)(O)O)cc1 (stereo not shown) [Compound 9]: 9.10

Consider the record given below.
Which pEC50 value belongs to C/C(=N\OCc1ccc(-c2cccc(C(F)(F)F)c2)cc1)c1ccc(CCC(N)(CO)COP(=O)(O)O)cc1 (stereo not shown) ?
7.80

###

system.name: EDG-6 (Homo sapiens, UniProt O95977)
Construct: c-myc (print says 'tagged or untagged'; not resolved for this receptor) (C); membranes
Sequence (O95977 whole entry): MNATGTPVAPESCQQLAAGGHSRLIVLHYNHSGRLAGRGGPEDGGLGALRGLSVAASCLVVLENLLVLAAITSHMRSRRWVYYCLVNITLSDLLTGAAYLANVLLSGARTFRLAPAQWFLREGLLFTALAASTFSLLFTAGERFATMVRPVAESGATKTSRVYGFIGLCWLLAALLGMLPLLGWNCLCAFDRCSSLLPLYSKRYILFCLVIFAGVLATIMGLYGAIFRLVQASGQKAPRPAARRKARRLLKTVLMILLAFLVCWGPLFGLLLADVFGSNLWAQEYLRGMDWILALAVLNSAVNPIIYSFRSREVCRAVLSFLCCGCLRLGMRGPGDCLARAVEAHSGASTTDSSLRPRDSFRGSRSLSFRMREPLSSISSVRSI
method: EDG-6 GTP [γ-35S] binding assay
assay.conditions: CHO membranes
readout: EC50 (nM)
Only the number, expressed in nM, is required.

These recorded examples may help you get a feel for the data.
* C/C(=N\OCc1ccc(-c2ccccc2)cc1)c1ccc(CCC(N)(CO)COP(=O)(O)O)cc1 (stereo not shown) | 168
* C/C(=N\OCc1ccc(-c2cccc(C(F)(F)F)c2)cc1)c1ccc(CCC(N)(CO)COP(=O)(O)O)cc1 (stereo not shown) | 1240

Consider the record given below.
Which EC50 value belongs to C/C(=N\OCc1ccc(-c2ccsc2)cc1)c1ccc(CCC(N)(CO)COP(=O)(O)O)cc1 (stereo not shown) ?
4400
